Test system: CCRF-CEM leukemia
Assay procedure: NCI-60 one-dose screen, 48 h (100 = growth as untreated, 0 = no growth, -100 = all killed)
Condition parameters: 10 µM
The panel holds about 83,000 compounds, 20% with a hit somewhere; the sample as a whole holds those more often.

| Compound | growth [%] |
| --- | --- |
| CCN(CC)CCC(=O)Nc1cccc2c1C(=O)c1c(c(O)c3ccccc3c1O)C2=O | -3.1 |
| COc1ccc(-c2cc(/C=C3\C(=O)Nc4ccc(Cl)cc43)[nH]n2)cc1OC | 72.2 |
| CCOC(=O)C(NC(=O)C(Cl)Cl)C(O)c1ccccc1 (stereo unspecified) | 150 |
| CC(=O)n1c(-c2ccc(Cl)c(Cl)c2)cn(-c2ccc(Cl)cc2)c1=O | -26.3 |
| COc1ccc(-c2nc3sc(-c4ccc(OC)cc4)c(-c4ccc(OC)cc4)n3c2/C=C/c2ccc(C(C)C)cc2)cc1 | 96 |
| Nc1nc(N)c2c(ccc3nccc32)[nH]1 | 27.9 |
| COc1cc(-c2cc(/C=C3\C(=O)Nc4ccc(Cl)cc43)[nH]n2)cc(OC)c1OC | 10.7 |
| O=C(CSSCC(=O)c1ccc(Cl)cc1)c1ccc(Cl)cc1 | 15.3 |
| Clc1nc(Cl)c2c(ncn2C/C=C\Cn2cnc3c(Cl)nc(Cl)nc32)n1 | -81 |
| CC1(C)CCC(=NNC(N)=S)CC1 | 30.3 |
| O=C(c1ccc(Cl)cc1Cl)N1CCOCC1 | 106 |
